Would you kindly list % ID/g (4 h) Femur for each of these molecules?
tested on: ASPC-1 tumor-bearing mice; test: Biodistribution of radionuclide labeled complexes in ASPC-1 tumor-bearing mice; type: in vivo, BALB/c nude mice; conditions: Femur, 4 h
Numbers only, in % ID/g.

# annotated cases, reported % ID/g (4 h) Femur shown
| MOLECULE | % ID/g (4 h) Femur (% ID/g) |
| --- | --- |
| COc1cccc(OC)c1-c1cc(C(=O)NC2(C(=O)O)C3CC4CC(C3)CC2C4)nn1-c1ccc(N(C)CCCN(C)CCCN(C)C(=O)CN2CCN(CC(=O)[O-])CCN(CC(=O)[O-])CCN(CC(=O)[O-])CC2)cc1C(C)C.[177Lu+3] (stereo not shown) [^177Lu-I-1] | 0.72 |
| COc1cccc(OC)c1-c1cc(C(=O)NC2(C(=O)O)C3CC4CC(C3)CC2C4)nn1-c1ccc(N(CCCN(C)C)C(=O)COCCOCCNC(=O)CN2CCN(CC(=O)[O-])CCN(CC(=O)[O-])CCN(CC(=O)[O-])CC2)cc1C(C)C.[177Lu+3] (stereo not shown) [^177Lu-I-6] | 0.12 |
| COc1cccc(OC)c1-c1cc(C(=O)NC2(C(=O)O)C3CC4CC(C3)CC2C4)nn1-c1ccc(SCCCN(C)CCCN(C)C(=O)CN2CCN(CC(=O)[O-])CCN(CC(=O)[O-])CCN(CC(=O)[O-])CC2)cc1C(C)C.[177Lu+3] (stereo not shown) [^177Lu-I-8] | 0.89 |

What measured % ID/g (4 h) Femur goes with COc1cccc(OC)c1-c1cc(C(=O)NC2(C(=O)O)C3CC4CC(C3)CC2C4)nn1-c1ccc(OCCCN(C)CCCN(C)C(=O)CN2CCN(CC(=O)[O-])CCN(CC(=O)[O-])CCN(CC(=O)[O-])CC2)cc1C(C)C.[177Lu+3] (stereo not shown) [^177Lu-I-7] ?
0.49

Just for reference, patent US20240287046A1 is where these values come from.
